Test settings: 293.15 K; 101 kPa; Liquid; Vibrating tube method
In this section, each of the molecules is paired with its reported mass density.
A number alone suffices; assume kg/m3.

[
  {
    "Molecule": "CO [methanol]",
    "mass density (kg/m3)": 791.72
  },
  {
    "Molecule": "CCCCO [butan-1-ol]",
    "mass density (kg/m3)": 809.78
  },
  {
    "Molecule": "CC(C)NC(C)C [diisopropylamine]",
    "mass density (kg/m3)": 720.89
  },
  {
    "Molecule": "CCCCCO [pentan-1-ol]",
    "mass density (kg/m3)": 814.8
  },
  {
    "Molecule": "CCO [ethanol]",
    "mass density (kg/m3)": 792.17
  }
]

Below: the item to evaluate.
Challenge: For CCCO [propan-1-ol] , what is its reported mass density?
Response given: 800.03

###

Test settings: 298.15 K; 101 kPa; Liquid; Vibrating tube method
Measurement name: mass density (kg/m3)
A number alone suffices; assume kg/m3.

Solved entries (count: 5):
[
  {
    "Line notation": "CC(C)NC(C)C",
    "mass density (kg/m3)": 715.35
  },
  {
    "Line notation": "CCCO",
    "mass density (kg/m3)": 797.81
  },
  {
    "Line notation": "CCO",
    "mass density (kg/m3)": 786.71
  },
  {
    "Line notation": "CO",
    "mass density (kg/m3)": 787.35
  },
  {
    "Line notation": "CCCCO",
    "mass density (kg/m3)": 806.05
  }
]

Below: the item to evaluate.
Challenge: For CCCCCO , what is its reported mass density?
Response given: 810.82

###

Test settings: 313.15 K; 101 kPa; Liquid; Vibrating tube method
Measurement name: mass density (kg/m3)
A number alone suffices; assume kg/m3.

Solved entries (count: 5):
[
  {
    "Compound": "CCCCCO [pentan-1-ol]",
    "Observed": 799.4
  },
  {
    "Compound": "CCCO [propan-1-ol]",
    "Observed": 787.95
  },
  {
    "Compound": "CO [methanol]",
    "Observed": 772.73
  },
  {
    "Compound": "CCCCO [butan-1-ol]",
    "Observed": 794.12
  },
  {
    "Compound": "CCO [ethanol]",
    "Observed": 771.14
  }
]

Below: the item to evaluate.
Challenge: For CC(C)NC(C)C [diisopropylamine] , what is its reported mass density?
Response given: 699.71

###

Test settings: 303.15 K; 101 kPa; Liquid; Vibrating tube method
Measurement name: mass density (kg/m3)
A number alone suffices; assume kg/m3.

Solved entries (count: 5):
[
  {
    "Line notation": "CCCCO",
    "Readout unit": "kg/m3",
    "mass density": 802.03
  },
  {
    "Line notation": "CCCO",
    "Readout unit": "kg/m3",
    "mass density": 795.05
  },
  {
    "Line notation": "CC(C)NC(C)C",
    "Readout unit": "kg/m3",
    "mass density": 710.23
  },
  {
    "Line notation": "CCO",
    "Readout unit": "kg/m3",
    "mass density": 781.3
  },
  {
    "Line notation": "CCCCCO",
    "Readout unit": "kg/m3",
    "mass density": 807.07
  }
]

Below: the item to evaluate.
Challenge: For CO , what is its reported mass density?
Response given: 782.24

Reference source for all entries: the NIST ThermoML archive (doi:10.1016/j.tca.2011.05.006)
